Parameter EC50: see the listing below.
Tested on: T1, T8 (Tn-MUC1) (PAPGST(α-GalNAc)APPAHGVTSAPDT(α-GalNAc)RPAPG-OH)
T1 peptide: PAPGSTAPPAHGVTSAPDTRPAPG
Test method notes: glycopeptide array
Readout kind: EC50 (µg/mL)

INSERT INTO results (binder, unit_abbrev, recorded_number) VALUES
  ('37 (antibody, V domains shown) VH: QVQLVQSGAEVKKPGASVTVSCKTSGYTFTSYYIHWLRQAPGQGLEWMGVINPFGGATNYAQKFQGRVTMTRDTSTITVYMELSSLRSEDTAVYYCARDAMGGDSHFDHWGRGTLVTVSS', 'µg/mL', 0.144),
  ('158 (antibody, V domains shown) VH: QVQLVQSGAEVKKPGASVKVSCKASGYTFTSYYMHWVRQAPGQGLEWMGVINPFDGSTNYAQKFQGRVTVTRDTATTTVFMDLSSLRSEDTAVYYCARDNMLGYVLFDYWGQGTLVTVSS', 'µg/mL', 0.242),
  ('198 (antibody, V domains shown) VH: QVQLVQSGAEVKKPGASVKVSCKASGYTFINNYIQWVRQAPGQGLEWMGVINPYDGSIHYAQKFQGRVTLTRDTSTTTVYMELSSLRSEDTAVYYCARDYMIGYVVFEYWGQGTLVTVSS', 'µg/mL', 0.121),
  ('106 (antibody, V domains shown) VH: QVQLVQSGAEMKKPGASVKISCKASGYTFTNYYIQWVRQAPGQGLEWMGVINPYDGSTNYAQRFQGRVTLTRDTSTTTVYMELSSLRSEDTAVYYCARDYMIGYVVFDFWGQGTLVTVSS', 'µg/mL', 0.036),
  ('162 (antibody, V domains shown) VH: QVQLVQSGAEVKKPGASVMLSCKASGYIFTSYYIQWVRQAPGQGLEWMGVVNPYDGSTNYAQKFQGRVTITRDTSTSTVFMELSSLRSEDTAVYYCARDNMLGHVIFDFWGQGTLVTVSS', 'µg/mL', 0.043);
